System: MDA MB 231 cells
TEST_DETAILS: Cell viability / cytotoxicity assay (cell counting)
Assay type: cell-based
MEASUREMENT_PARAMETERS: Homo sapiens; MDA MB 231, 72 h
pIC50: −log10 of the molar value.

| STRUCTURE_STRING | pIC50 |
| --- | --- |
| CCCCc1cn(-c2ccc(NC(=O)Nc3ccccc3C(F)(F)F)cc2)nn1 | 5.49 |

====

TEST_DETAILS: Drug distribution to brain and liver in mice
Assay type: in vivo, Swiss Albino mice
MEASUREMENT_PARAMETERS: male, Swiss Albino, mouse, liver/plasma, ip, 10 mg/kg; i.p. administration, 8h; ng/g normalized against ng/mL; read-out: LIVER/PLASMA
READOUT_LABEL: Kp at 8 h

| STRUCTURE_STRING | VAL |
| --- | --- |
| CCCCc1cn(-c2ccc(NC(=O)Nc3ccccc3C(F)(F)F)cc2)nn1 | 6.32 |
